- Target Desc: Bile acid receptor (Homo sapiens, UniProt Q96RI1)
- Sequence (Q96RI1 whole entry): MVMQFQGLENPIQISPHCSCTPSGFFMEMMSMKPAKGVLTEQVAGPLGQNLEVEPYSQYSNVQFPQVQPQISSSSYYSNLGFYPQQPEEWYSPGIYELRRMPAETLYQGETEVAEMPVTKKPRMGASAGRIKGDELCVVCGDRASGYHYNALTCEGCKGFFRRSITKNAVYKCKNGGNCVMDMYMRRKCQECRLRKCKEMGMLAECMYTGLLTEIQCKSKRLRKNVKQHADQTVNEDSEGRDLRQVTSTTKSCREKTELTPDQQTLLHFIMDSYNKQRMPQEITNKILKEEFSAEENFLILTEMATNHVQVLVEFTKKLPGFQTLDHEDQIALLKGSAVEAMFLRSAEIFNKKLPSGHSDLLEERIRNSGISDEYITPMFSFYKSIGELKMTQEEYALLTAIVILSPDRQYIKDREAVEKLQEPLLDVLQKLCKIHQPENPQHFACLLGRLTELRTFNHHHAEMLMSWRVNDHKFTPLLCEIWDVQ
- Procedure Text: Agonist activity at human FXR expressed in human Huh-7 cells co-transfected with FXRE-Luc reporter plasmid assessed as receptor transactivation incubated for 16 hrs by luciferase reporter gene assay
Reported Property: pEC50
Lab note: report pEC50 as minus log10 of the concentration in molar units, number only.

Assign pEC50 to the following record: C/C(=N\OCc1cccc(C(=O)O)c1)c1ccc(OCc2c(-c3c(Cl)cccc3Cl)noc2C2CC2)c(Cl)c1
6.59

Given C/C(=N\OCc1cncc(C(=O)O)c1)c1ccc(OCc2c(-c3c(Cl)cccc3Cl)noc2C2CC2)cc1Cl , respond with its pEC50.
7.19

Quickly give me recorded pEC50 for C/C(=N\OCc1ccc(C(=O)O)o1)c1ccc(OCc2c(-c3c(Cl)cccc3Cl)noc2C2CC2)cc1Cl
7.30

Query pEC50 for C/C(=N\OCc1cccc(C(=O)O)c1)c1ccc(OCc2c(-c3c(Cl)cccc3Cl)noc2C2CC2)cn1
6.63

Give the reported value of pEC50 for this record: C/C(=N\OCc1cccc(C(=O)O)c1)c1ccc(OCc2c(-c3ccccc3OC(F)(F)F)noc2C2CC2)cc1Cl
6.97

Fill in pEC50 for record C/C(=N\OCc1ccc(C(=O)O)cc1)c1ccc(OCc2c(-c3c(Cl)cccc3Cl)noc2C2CC2)cc1Cl
6.87

---

- Procedure Text: Plasma concentration in ICR mouse at 15 mg/kg, po measured after 1.5 hrs by LC-MS/MS analysis
- Format: ADME, organism-based
Reported Property: concentration at 1.5 h
Answers without a unit are incomplete; give the number and then its unit.

Compound String	concentration at 1.5 h
C/C(=N\OCc1cc(C(=O)O)ccc1C#N)c1ccc(OCc2c(-c3ccccc3OC(F)(F)F)noc2C2CC2)cc1Cl	56.7 ng/mL

Please turn your attention to the following entry.
Please give measured concentration at 1.5 h of the following entry: C/C(=N\OCc1cc(C(=O)O)ccc1C#N)c1ccc(OCc2c(-c3c(Cl)cccc3Cl)noc2C2CC2)cc1Cl
124 ng/mL

---

- Target Desc: UniProtKB Q8TDU6
- Sequence (Q8TDU6 whole entry): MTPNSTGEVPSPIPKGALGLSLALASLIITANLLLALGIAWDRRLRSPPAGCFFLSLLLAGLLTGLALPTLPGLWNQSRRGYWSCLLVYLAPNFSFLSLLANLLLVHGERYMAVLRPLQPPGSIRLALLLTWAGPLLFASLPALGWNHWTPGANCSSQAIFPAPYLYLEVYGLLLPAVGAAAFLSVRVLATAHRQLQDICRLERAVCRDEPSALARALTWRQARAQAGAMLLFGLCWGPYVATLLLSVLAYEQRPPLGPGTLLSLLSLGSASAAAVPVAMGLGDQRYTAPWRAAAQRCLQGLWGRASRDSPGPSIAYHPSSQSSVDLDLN
- Procedure Text: Agonist activity at human TGR5 expressed in HEK293 cells co-transfected with CRE-Luc reporter plasmid assessed as receptor transactivation incubated for 5.5 hrs by luciferase reporter gene assay relative to OCA
- Format: cell-based
- Reported Conditions: read-out: Efficacy
Reported Property: Emax at 5.5 h (%)
Express the result in % but write the number alone.

Compound String	Emax at 5.5 h, %
C/C(=N\OCc1cc(C(=O)O)ccc1C#N)c1ccc(OCc2c(-c3c(Cl)cccc3Cl)noc2C2CC2)cc1Cl	1.1

Continue with the next compound.
Report Emax at 5.5 h, nothing else, for this compound: C/C(=N\OCc1cc(C(=O)O)ccc1C#N)c1ccc(OCc2c(-c3ccccc3OC(F)(F)F)noc2C2CC2)cc1Cl
0.6
